- experimentDescription: LYSA solubility study
- Format: physicochemical
- cond: phosphate buffer, pH 6.5, aqueous buffer, thermodynamic from solid, 0.05M phosphate buffer pH 6.5, read-out: LYSA of Prodrugs
measuredQuantity: solubility thermodynamic (µg/mL)

>>> df
                                   molecule  unittext  experimentalvalue
0  CCN(C)C(=O)n1c(=O)n(Cc2ccc(Cl)cc2)c2nc([S@@](=N)(=O)CC)nc(N)c21 [Example 42-A]     µg/mL                225
1  CCCN(C)C(=O)n1c(=O)n(Cc2ccc(C)cc2)c2nc([S@](=N)(=O)CC)nc(N)c21 [Example 43-A]     µg/mL                203
2  CCCN(C)C(=O)n1c(=O)n(Cc2ccc(Br)cc2)c2nc([S@@](=N)(=O)CC)nc(N)c21 (single isomer, unassigned) [Example 47-B]     µg/mL                128
3  CCCN(C)C(=O)n1c(=O)n(Cc2ccc(Cl)cc2)c2nc([S@@](=N)(=O)CC)nc(N)c21 [Example 41-B]     µg/mL                250
4  CCCS(=N)(=O)c1nc(N)c2c(n1)n(Cc1ccccc1)c(=O)n2C(=O)N(C)CCN(C)C(=O)OCC (stereo not drawn) [Example 28]     µg/mL                695
5  CCCN(C)C(=O)n1c(=O)n(Cc2ccc(Cl)cc2)c2nc([S@](=N)(=O)CC)nc(N)c21 [Example 41-A]     µg/mL                260

I: CCCS(=N)(=O)c1nc(N)c2c(n1)n(Cc1ccccc1)c(=O)n2C(=O)N(C)CCCOC (stereo not drawn) [Example 12]
II: CCCCN(C)C(=O)OCCN(C)C(=O)n1c(=O)n(Cc2ccccc2)c2nc(S(=N)(=O)CCC)nc(N)c21 (stereo not drawn) [Example 29]
INPUT: Param pair: I , II . Output: the one whose solubility thermodynamic is numerically greater. Kindly give the label for the entry you pick.
OUTPUT: II

* * *

- assaySystem: human TLR7 (Homo sapiens)
- Sequence (Q9NYK1 27-1049): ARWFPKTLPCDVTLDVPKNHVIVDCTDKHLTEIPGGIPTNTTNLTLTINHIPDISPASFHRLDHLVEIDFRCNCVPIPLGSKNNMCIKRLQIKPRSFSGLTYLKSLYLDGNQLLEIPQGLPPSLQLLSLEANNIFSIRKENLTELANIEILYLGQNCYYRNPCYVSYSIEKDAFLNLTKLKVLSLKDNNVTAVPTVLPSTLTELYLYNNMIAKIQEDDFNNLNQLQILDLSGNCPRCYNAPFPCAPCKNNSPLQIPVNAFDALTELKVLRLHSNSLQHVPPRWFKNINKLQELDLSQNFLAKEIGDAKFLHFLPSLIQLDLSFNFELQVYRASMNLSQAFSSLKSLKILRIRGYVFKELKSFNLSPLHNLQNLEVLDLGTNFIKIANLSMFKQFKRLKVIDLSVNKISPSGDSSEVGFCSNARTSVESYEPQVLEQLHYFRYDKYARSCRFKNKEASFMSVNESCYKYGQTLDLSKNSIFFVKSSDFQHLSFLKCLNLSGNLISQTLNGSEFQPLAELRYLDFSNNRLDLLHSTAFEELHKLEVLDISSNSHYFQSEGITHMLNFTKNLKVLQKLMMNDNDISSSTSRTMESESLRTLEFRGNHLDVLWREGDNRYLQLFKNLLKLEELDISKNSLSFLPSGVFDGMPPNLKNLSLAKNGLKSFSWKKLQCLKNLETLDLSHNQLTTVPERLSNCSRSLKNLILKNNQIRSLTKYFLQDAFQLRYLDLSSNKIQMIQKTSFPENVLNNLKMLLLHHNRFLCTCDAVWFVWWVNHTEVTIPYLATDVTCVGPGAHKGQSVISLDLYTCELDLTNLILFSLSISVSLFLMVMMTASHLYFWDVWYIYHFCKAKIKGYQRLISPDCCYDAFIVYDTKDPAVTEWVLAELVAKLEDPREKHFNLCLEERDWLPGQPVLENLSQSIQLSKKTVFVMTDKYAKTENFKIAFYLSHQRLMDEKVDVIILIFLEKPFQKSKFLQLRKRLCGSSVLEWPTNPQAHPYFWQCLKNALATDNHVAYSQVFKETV
- experimentDescription: HEK293-Blue-hTLR-7 cells assay (SEAP reporter)
- Assay type: cell-based
- cond: HEK293-Blue-hTLR-7 cells, SEAP reporter, 20 hrs; prodrug; read-out: HEK293-hTLR-7 EC50 (Prodrug)
measuredQuantity: EC50 (µM)

// worked examples, EC50 included
In [3]: df
Out[3]:
                                   compound                assaysystem  measuredquantity  experimentalvalue
0  CCCN(CCOC)C(=O)n1c(=O)n(Cc2ccccc2)c2nc(S(=N)(=O)CCC)nc(N)c21 (stereo not shown) [Example 7]  human TLR7 (Homo sapiens)              EC50               19.9
1  CCN(C)C(=O)n1c(=O)n(Cc2ccc(Cl)cc2)c2nc([S@@](=N)(=O)CC)nc(N)c21 (stereo in doubt) [Example 42-B]  human TLR7 (Homo sapiens)              EC50               49.2

1: CCCCN(C)C(=O)n1c(=O)n(Cc2ccc(Cl)cc2)c2nc([S@@](=N)(=O)CCC)nc(N)c21 [Example 34-B]
2: CCCS(=N)(=O)c1nc(N)c2c(n1)n(Cc1ccccc1)c(=O)n2C(=O)N(C)CCN(C)C(=O)OC (stereo not shown) [Example 26]
3: CCN(C)C(=O)n1c(=O)n(Cc2ccc(Br)cc2)c2nc(S(=N)(=O)CC)nc(N)c21 (single isomer, unassigned) [Example 48-B]
4: CCCN(C)C(=O)n1c(=O)n(Cc2ccc(F)cc2)c2nc(S(=N)(=O)CC)nc(N)c21 (single isomer, unassigned) [Example 45-A]
5: CCCS(=N)(=O)c1nc(N)c2c(n1)n(Cc1ccccc1)c(=O)n2C(=O)N(C)CC(C)C (stereo not shown) [Example 13]
INPUT: Put the compounds in ascending order of EC50. Reply format: the labels, ordered as requested.
OUTPUT: 1, 2, 3, 5, 4

Cited source for all entries: patent US10233184B2
